# protocolText: yeast display, Sf9 membrane polyspecificity reagent, FACS + sequencing; frameworks hold sequencing errors

sequenceData | polyreactivity (PSR sort gate)
QVQLVESGGGLVQAGGSLRLSWAASGSIFSIYAMGWYRQAPGKERDLVASITRSSGRTYYAYSVKGRFTISRDNAKNNVYLQMNSLKPEDTAVYYCAKDYIPLALDADDYCGQGTQVTVSS | low polyreactivity
QVQLVESGGGLVQAGGSIRLSCAASGRTFGQNPMGWYRQAPGKERELVAVITRGGSTNYADSVKGRFTISRDNAKNTVYLQMNSLKPEDTAVYYCAADYTAYGYDYWGQGTQVTVSS | low polyreactivity
QVQLVESGGGLVQAGGSLRLSCAASGSSLYYNAMGWYRQAPGKERELVAAISWSGGSTYYADSVKGRFTISRDNAKNTVYLQMNSLKPEDTAVSYCAADQSTVLDVGSWGQGTQVTVSS | low polyreactivity
QVQLGESGGGLVQAGGSLRLSCAASGSTRGYTMGWYRQAPGKERELVAVISYSGGRTYYADSVKGRFTISRDNAKNTVYLQMNSLKPEDTAVYYCNAYYYQFRGIRVSGGYWGQGTQVTVSS | high polyreactivity
QVQLVESGGGLVQAGGSLRLICAASGRIVEGYAMGWYRQAPGKERELDAAISSGGSTYYADSVKGRFTISRDNAKNTVYLQMNSLKPEDTAVYYCNAAHSVVSHGPGAGLEMDYWGEGTQVTVSS | low polyreactivity
QVQLVESGGGLVQAGGSLRLTCAASGSTFISYAMGWYRPAPGKERELVAAISRRGDSTYYADSVKGRFTISRDNAKYTVYLQMKSLKPEDTAVYYCAADSYPAYLGFVGFDYWRQGTQVTVSS | low polyreactivity
QVQLVESGGGLVQAGGSLRLSCAASGRIFRFYAMGWYRQAPGKERELVAAITYGGGTTYYADSVKGRFTISRDNAKNTVYLQMNSLKPEDTAVYYCAADHRQGYDHEYDYWGQGTQVTVSS | low polyreactivity
QVQLVESGGGLVQAGGSLRLSCAASGSIFHAYAMGWYRQAPGKERELVAAINRGGRTNYADSVKGRFTISRDNAKNTVYLQMNSLKPEDTAVYYCAASYRWVTDKTHYYWGQGTQVTVSS | low polyreactivity
QVQLVESGGGLVQAGGSLRLSCAASGSICERYAMGWYRQAPGKERELVAAISWRGTRTFYADSVKGRFTISRDNAKNTVYLQMNSLKPEDTAVYYCAADSRPPKYDYWGQGTQVTVSS | high polyreactivity
QVQLEESGGGLVQAGGSLRLSCAASGRTFSGYAMGSYRQAPGKDRELVAAITRRGGTTYYADSVKGRFTISRDNAKNTVYLQMNSLKPEDTAVYYCAAAKPRVISQKIIYYYWGQGTQVTVSS | high polyreactivity
QVQLVESGGGLVQAGGSLRLSCAASGSTFSGYAKGWYRQAPGTEWELVAAINWNGGRTYYADSVKGRFTISRDNAKNTVYLQMNSLKPEDTAVYYCNAVTRAAYWWTARSTDYDYWGQGTQVTVSS | high polyreactivity
QVQLVESGGGLVQAGGRLRLSCAASGSIFYNYAMGWYRQAPGKERELVAAITRSGGSTYYADSVKGRFTISRDNAKNTVYLQMNSLKPEDTAVYYCAARYPFGSLGRYGYWGQGTQVTVSS | high polyreactivity
QVQLVESGGGLVQAGGSLPLSCAASGSTFTYYAMGWYRKAPGKEGELVARITWTGGRTYYADSVKGRFTISRGNAKNTVYLQMNSVKTEDTAVYYCNALPYFFETQYDYWGQGTQVTVSS | low polyreactivity
QVQLVESGGGLVQAGGSLRLSCAASGRIFRYYAMGWYRQAPGKERELVATIDWSVGSTYYADSVKGRFTISRDNAKNTVYLQMNSLKPEDTAVYYCAKRGPQVWTFDYDSSGQGTQVTVSS | low polyreactivity
